Cited source for all entries: the supplement of paper PMC3353916

Documented percent infected across a set of sequences
- System: Sindbis virus TE/5'2J-GFP;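 further: Interferon-defective BHK-21 derivatives, ZAP line overexpressing the rat ZAP N-terminal zinc finger domain fused to Zeocin resistance, GFP scored within live singlet TagRFP+ cells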
- measurement-notes: percent infected (GFP+ in RFP+ ISG-expressing cells); higher = more infection (less antiviral activity)
- experimental-conditions: experiment: confirmatory screen 2; BHK/NZAP-Zeo (ZAP)

{"ordered-residues": "MDAPHSKAALDSINELPENILLELFTHVPARQLLLNCRLVCSLWRDLIDLMTLWKRKCLREGFITKDWDQPVADWKIFYFLRSLHRNLLRNPCAEEDMFAWQIDFNGGDRWKVESLPGAHGTDFPDPKVKKYFVTSYEMCLKSQLVDLVAEGYWEELLDTFRPDIVVKDWFAARADCGCTYQLKVQLASADYFVLASFEPPPVTIQQWNNATWTEVSYTFSDYPRGVRYILFQHGGRDTQYWAGWYGPRVTNSSIVVSPKMTRNQASSEAQPGQKHGQEEAAQSPYRAVVQIF [FBXO6]", "percent infected": "94.5%"}
{"ordered-residues": "MNTIVFNKLSGAVLFEDGGASERERGGRPYSGVLDSPHARPEVGIPDGPPLKDNLGLRHRRTGARQNGGKVRHKRQALQDMARPLKQWLYKHRDNPYPTKTEKILLALGSQMTLVQVSNWFANARRRLKNTVRQPDLSWALRIKLYNKYVQGNAERLSVSSDDSCSEDGENPPRTHMNEGGYNTPVHHPVIKSENSVIKAGVRPESRASEDYVAPPKYKSSLLNRYLNDSLRHVMATNTTMMGKTRQRNHSGSFSSNEFEEELVSPSSSETEGNFVYRTDTLENGSNKGESAANRKGPSKDDTYWKEINAAMALTNLAQGKDKLQGTTSCIIQKSSHIAEVKTVKVPLVQQF [MKX]", "percent infected": "92.9%"}
{"ordered-residues": "MAQASPPRPERVLGASSPEARPAQEALLLPTGVFQVAEKMEKRTCALCPKDVEYNVLYFAQSENIAAHENCLLYSSGLVECEDQDPLNPDRSFDVESVKKEIQRGRKLKCKFCHKRGATVGCDLKNCNKNYHFFCAKKDDAVPQSDGVRGIYKLLCQQHAQFPIIAQSAKFSGVKRKRGRKKPLSGNHVQPPETMKCNTFIRQVKEEHGRHTDATVKVPFLKKCKEAGLLNYLLEEILDKVHSIPEKLMDETTSESDYEEIGSALFDCRLFEDTFVNFQAAIEKKIHASQQRWQQLKEEIELLQDLKQTLCSFQENRDLMSSSTSISSLSY [PHF11]", "percent infected": "93.7%"}
{"ordered-residues": "MLRAGAPTGDLPRAGEVHTGTTIMAVEFDGGVVMGSDSRVSAGEAVVNRVFDKLSPLHERIYCALSGSAADAQAVADMAAYQLELHGIELEEPPLVLAAANVVRNISYKYREDLSAHLMVAGWDQREGGQVYGTLGGMLTRQPFAIGGSGSTFIYGYVDAAYKPGMSPEECRRFTTDAIALAMSRDGSSGGVIYLVTITAAGVDHRVILGNELPKFYDE [PSMB9]", "percent infected": "91.3%"}
{"ordered-residues": "MKEDCLPSSHVPISDSKSIQKSELLGLLKTYNCYHEGKSFQLRHREEEGTLIIEGLLNIAWGLRRPIRLQMQDDREQVHLPSTSWMPRRPSCPLKEPSPQNGNITAQGPSIQPVHKAESSTDSSGPLEEAEEAPQLMRTKSDASCMSQRRPKCRAPGEAQRIRRHRFSINGHFYNHKTSVFTPAYGSVTNVRVNSTMTTLQVLTLLLNKFRVEDGPSEFALYIVHESGERTKLKDCEYPLISRILHGPCEKIARIFLMEADLGVEVPHEVAQYIKFEMPVLDSFVEKLKEEEEREIIKLTMKFQALRLTMLQRLEQLVEAK [RASSF4]", "percent infected": "94.9%"}
